Numbers sourced from PubChem BioAssay (NCI).

method_description: NCI Yeast Anticancer Drug Screen. Data for the mlh1 rad18 strain (AID 175)
measurement_parameters: S. cerevisiae mlh1 rad18 strain growth inhibition; at 5.0 µM (retest, dose inferred, filed as 0.5)
About 79,000 compounds went through this panel and 15% of them were active in at least one assay; those are over-represented in the sample as a whole. Active and inactive are the calls of the source. Cut-off read from the data, not from the text of the source: active = growth inhibition above about 70%; inactive = the rest.
The categories you may choose from are 1.0 for active, 0.0 for inactive

Example results:
molecule="OC(OC/C(I)=C(/I)COC(O)C(Cl)(Cl)Cl)C(Cl)(Cl)Cl (stereo not drawn)" label=0.0
molecule=CC(=O)Oc1ccc(-c2ccccc2)cc1Br label=0.0
molecule=Cc1c(C(=O)O)nc(C(Br)(Br)Br)[nH]c1=O label=0.0

Now for another entry.
Input: Please indicate how the test categorized Oc1c(Cl)cc(CN(Cc2cc(Cl)c(O)c(Cl)c2)C2CCCCC2)cc1Cl .
Output: 0.0
